Biological target: biotinylated labeled human GPC3 protein (produced in-house) (human, UniProt P51654 25-559, limits assumed, biotinylated (Dojindo, Cat. No. LK03); sites not stated)
Experiment: ELISA, biotinylated human GPC3 protein
Listing of recorded OD450 at 66.66 nM by entry.
assayEndpoint: OD450 at 66.66 nM (OD450)

binder: hAb006LH2L1b (antibody, human IgG1, V domains shown, Humanized F3.38.7; VH H2 + VL L1b; expressed as human IgG1) VH: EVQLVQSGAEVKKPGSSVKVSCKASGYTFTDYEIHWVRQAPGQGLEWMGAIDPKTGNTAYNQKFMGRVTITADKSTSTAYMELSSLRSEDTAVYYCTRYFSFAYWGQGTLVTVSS VL: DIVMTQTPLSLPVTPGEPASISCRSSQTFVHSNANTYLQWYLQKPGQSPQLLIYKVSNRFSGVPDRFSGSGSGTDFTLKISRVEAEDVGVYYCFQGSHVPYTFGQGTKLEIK
assayEndpoint: OD450 at 66.66 nM
measuredResult: 2.37
--
binder: hAb005LH2L1 (antibody, human IgG1, V domains shown, Humanized F3.54.12; VH H2 + VL L1; expressed as human IgG1) VH: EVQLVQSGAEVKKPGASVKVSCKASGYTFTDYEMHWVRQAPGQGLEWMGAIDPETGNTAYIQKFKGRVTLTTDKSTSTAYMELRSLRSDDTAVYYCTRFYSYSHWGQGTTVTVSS VL: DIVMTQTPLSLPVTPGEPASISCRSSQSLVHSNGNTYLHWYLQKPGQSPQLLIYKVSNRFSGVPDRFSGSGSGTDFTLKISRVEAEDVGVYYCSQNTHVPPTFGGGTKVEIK
assayEndpoint: OD450 at 66.66 nM
measuredResult: 1.16
--
binder: hAb006LH2L1 (antibody, human IgG1, V domains shown, Humanized F3.38.7; VH H2 + VL L1; expressed as human IgG1) VH: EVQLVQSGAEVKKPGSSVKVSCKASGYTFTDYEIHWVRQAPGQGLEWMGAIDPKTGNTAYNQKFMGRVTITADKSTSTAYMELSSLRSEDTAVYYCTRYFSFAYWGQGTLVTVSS VL: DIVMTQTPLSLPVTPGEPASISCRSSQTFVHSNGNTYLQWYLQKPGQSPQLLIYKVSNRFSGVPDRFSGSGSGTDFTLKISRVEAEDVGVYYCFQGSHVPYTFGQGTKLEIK
assayEndpoint: OD450 at 66.66 nM
measuredResult: 2.28
